Molecular target: human PDE4B1 (Homo sapiens)
Construct: host or cells: Sf9 cells
Assay: cAMP HTRF assay to determine the activity of hPDE4B1
Assay type: biochemical
Details: Percentage inhibition of PDE4B at 1 μM test concentration
Experimental: cAMP HTRF® Assay to Determine the Activity of hPDE4B1 The inhibiting effect of the compounds on the enzyme activity of human PDE4B1 was measured by the quantification of 5′-adenosine monophosphate (5′-AMP), which is formed from 3′,5′-cyclic adenosine monophosphate (cAMP). Human recombinant enzyme, expressed in Sf9 cells, and the HTRF (homogeneous time-resolved fluorescence) detection method were used in the assay. […]
measurement_kind: inhibition at 1 µM (%)

Completed entries (count: 6):
molecule: CN(C(=O)COc1ccc2c(c1)N(c1nc(-c3ccc(Cl)s3)nc3c1CCC3)CC2)C1CC1
measurement_kind: inhibition at 1 µM
u: %
test_value: 65
//
molecule: COc1ccc(-c2nc3c(c(N4CCc5ccc(OCC(=O)N6CCCC6)cc54)n2)C[S+]([O-])C3)cc1 (centres unmarked)
measurement_kind: inhibition at 1 µM
u: %
test_value: 111
//
molecule: COc1ccc(-c2nc3c(c(N4CCc5ccc(OCC(=O)N(C)C)cc54)n2)CS(=O)(=O)C3)nc1
measurement_kind: inhibition at 1 µM
u: %
test_value: 87
//
molecule: CN(C)C(=O)COc1ccc2c(c1)N(c1nc(-c3ccccc3NS(C)(=O)=O)nc3c1C[S+]([O-])C3)CC2 (centres unmarked)
measurement_kind: inhibition at 1 µM
u: %
test_value: 85
//
molecule: CN(C)C(=O)COc1ccc2c(c1)N(c1nc(-c3ccoc3)nc3c1C[S+]([O-])C3)CC2 (centres unmarked)
measurement_kind: inhibition at 1 µM
u: %
test_value: 110
//
molecule: COc1ccc(-c2nc3c(c(N4CCc5cc(CC(=O)O)ccc54)n2)CS(=O)(=O)C3)cc1F
measurement_kind: inhibition at 1 µM
u: %
test_value: 96

I: O=C(COc1ccc2c(c1)N(c1nc(-c3ccncc3)nc3c1CS(=O)(=O)C3)CC2)N1CCCC1
II: O=C(O)Cc1ccc2c(c1)CC(=O)N2c1nc(-c2ccc(F)s2)nc2c1CCC2
Dear colleague, could you let me know whether I or II has the lower recorded inhibition at 1 µM? Thanks. Respond using the label that marks the chosen record.
II
(II: 34%, I: 87%)

====

Biological target: human PDE4B1 (Homo sapiens)
Construct: host or cells: Sf9 cells
Experiment: cAMP HTRF assay to determine the activity of hPDE4B1
Assay type: biochemical
Details: Percentage inhibition of PDE4B at 1 μM test concentration
measurement_kind: inhibition at 1 µM (%)

Examples with answers:
molecule: O=C(COc1ccc2c(c1)N(c1nc(-c3ccc(Cl)s3)nc3c1CCC3)CC2)N1CCC1
u: %
inhibition at 1 µM: 43
--
molecule: CN(C)C(=O)COc1ccc2c(c1)N(c1nc(-c3cccc(C(N)=O)c3)nc3c1C[S+]([O-])C3)CC2 (stereo not shown)
u: %
inhibition at 1 µM: 62

a: O=C(COc1ccc2c(c1)N(c1nc(-c3ccc(Cl)s3)nc3c1CS(=O)(=O)C3)CC2)NC1CC1
b: CC(C)NC(=O)COc1ccc2c(c1)N(c1nc(-c3ccc(Cl)s3)nc3c1CCC3)CC2
Which has the higher inhibition at 1 µM, a or b ? Write the label of whichever entry you select.
a

====

measurement_kind: melting point

chemical_structure: COc1ccc(-c2nc3c(c(N4CCc5c(OCC(=O)N(C)C)cccc54)n2)CS(=O)(=O)C3)cc1F
melting point: 231 to 233 °C

Given the compound O=C(COc1ccc2c(c1)N(c1nc(-c3ccc(Cl)s3)nc3c1CCC3)CC2)N1CCCC1 , write its reported melting point.
209 to 212 °C

Return melting point (reported value) for this compound: COc1ccc(-c2nc3c(c(N4CCc5cc(CC(=O)O)ccc54)n2)CS(=O)(=O)C3)cc1Cl
245 to 247 °C

Using known records, supply melting point for COc1ccc(-c2nc3c(c(N4CCc5cc(CC(=O)O)ccc54)n2)CS(=O)(=O)C3)cc1F
192 to 195 °C

Give the reported value of melting point for this record: COc1ccc(-c2nc3c(c(N4CCc5c(OCC(=O)N(C)C)cccc54)n2)CS(=O)(=O)C3)cc1
225 to 232 °C

====

Biological target: human PDE4B1 (Homo sapiens, UniProt Q07343)
Construct: host or cells: Sf9 cells
Sequence (Q07343 whole entry): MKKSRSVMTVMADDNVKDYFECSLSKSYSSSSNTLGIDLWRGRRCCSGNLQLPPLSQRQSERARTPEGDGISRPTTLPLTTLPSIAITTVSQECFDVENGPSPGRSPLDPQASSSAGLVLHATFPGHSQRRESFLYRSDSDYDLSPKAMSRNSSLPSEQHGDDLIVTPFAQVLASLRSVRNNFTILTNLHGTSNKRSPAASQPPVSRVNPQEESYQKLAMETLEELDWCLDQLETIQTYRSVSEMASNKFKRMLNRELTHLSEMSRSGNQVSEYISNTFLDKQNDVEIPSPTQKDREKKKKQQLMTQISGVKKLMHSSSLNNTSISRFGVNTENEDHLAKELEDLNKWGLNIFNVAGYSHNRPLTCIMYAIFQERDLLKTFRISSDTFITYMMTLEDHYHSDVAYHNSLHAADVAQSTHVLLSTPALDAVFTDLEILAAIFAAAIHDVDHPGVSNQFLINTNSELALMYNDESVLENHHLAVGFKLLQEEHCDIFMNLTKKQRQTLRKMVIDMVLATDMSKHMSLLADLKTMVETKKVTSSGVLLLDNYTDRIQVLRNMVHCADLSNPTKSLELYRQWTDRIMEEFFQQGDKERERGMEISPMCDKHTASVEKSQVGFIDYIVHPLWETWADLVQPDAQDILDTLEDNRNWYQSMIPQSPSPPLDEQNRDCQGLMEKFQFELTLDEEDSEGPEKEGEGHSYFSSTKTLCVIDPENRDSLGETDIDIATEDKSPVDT
Experiment: cAMP HTRF assay to determine the activity of hPDE4B1
Assay type: biochemical
Details: dose response measurements with eight concentrations; reported as ranges; read-out: IC50
# IC50 per entry

Study these solved cases before continuing.
compound: CN(C)C(=O)COc1ccc2c(c1)N(c1nc(-c3ccccc3C#N)nc3c1C[S+]([O-])C3)CC2 (stereo not drawn)
test_value: 100 to 1000 nM

compound: O=C(COc1ccc2c(c1)N(c1nc(-c3ccc(Cl)s3)nc3c1CS(=O)(=O)C3)CC2)N1CCC1
test_value: < 100 nM

compound: COc1cc(-c2nc3c(c(N4CCc5ccc(OCC(=O)N(C)C)cc54)n2)C[S+]([O-])C3)ccc1Cl (stereo not drawn)
test_value: 100 to 1000 nM

Retrieve IC50 measured for COc1ccc(-c2nc3c(c(N4CCc5ccc(OCC(=O)N(C)C)cc54)n2)CSC3)cc1Cl and print it.
< 100 nM

Please list IC50 recorded for the compound COc1ccccc1-c1nc2c(c(N3CCc4ccc(OCC(=O)N(C)C)cc43)n1)C[S+]([O-])C2 (stereo not drawn)
100 to 1000 nM

# return recorded IC50 for entry O=C(O)Cc1ccc2c(c1)CCN2c1nc(-c2cncs2)nc2c1CCC2
100 to 1000 nM

Indicate its recorded IC50; the compound in question is CCOc1ccc(-c2nc3c(c(N4CCc5ccc(OCC(=O)N(C)C)cc54)n2)C[S+]([O-])C3)cc1 (stereo not drawn)
< 100 nM

Using the record for CNC(=O)Cc1ccc2c(c1)CCN2c1nc(-c2ccc(Cl)s2)nc2c1CS(=O)(=O)C2 , state its measured IC50.
100 to 1000 nM

Input N#Cc1ccc(-c2nc3c(c(N4CCc5cc(CC(=O)O)ccc54)n2)CCC3)s1 , output reported IC50.
< 100 nM

Report measured IC50; entry is O=C(O)c1ccc2c(ccn2-c2nc(-c3ccc(Cl)s3)nc3c2CCC3)c1
100 to 1000 nM

====

Biological target: human PDE4B1 (Homo sapiens, UniProt Q07343)
Construct: host or cells: Sf9 cells
Assay: cAMP HTRF assay to determine the activity of hPDE4B1
Format: biochemical
Details: dose response measurements with eight concentrations; reported as ranges; read-out: IC50
measurement_kind: IC50

Record excerpt, results attached:
molecule: CN(C)C(=O)COc1ccc2c(c1)N(c1nc(-c3ccc(F)cc3)nc3c1C[S+]([O-])C3)CC2 (stereo not shown) [2-99]
IC50: < 100 nM

molecule: CN(C)C(=O)COc1ccc2c(c1)N(c1nc(-c3cnc4ccccc4c3)nc3c1C[S+]([O-])C3)CC2 (stereo not shown) [2-146]
IC50: < 100 nM

molecule: COc1ccc(-c2nc3c(c(-n4ncc5cc(CC(=O)O)ccc54)n2)CCC3)cc1F [Compound No. 1-60]
IC50: 100 to 1000 nM

Please give the documented IC50 of CN(C)C(=O)COc1ccc2c(c1)N(c1nc(-c3ccc4cccnc4c3)nc3c1C[S+]([O-])C3)CC2 (stereo not shown) [2-149]
< 100 nM

Tell me IC50 reported for COc1ccc(-c2nc3c(c(N4CCc5cc(CC(=O)O)ccc54)n2)CCCC3)cc1Cl [Compound No. 1-39]
100 to 1000 nM

Look up and state reported IC50 for O=C(O)Cc1ccc2c(c1)CCN2c1nc(-c2ccc3occc3c2)nc2c1C[S+]([O-])C2 (stereo not shown) [Compound No. 1-81]
< 100 nM

Quick one: give measured IC50 for CN(C)C(=O)COc1ccc2c(c1)N(c1nc(-c3cccnc3)nc3c1C[S+]([O-])C3)CC2 (stereo not shown) [Compound No. 2-137]
< 100 nM

====

Entries and their IC50 values follow.
Biological target: human PDE4B1 (Homo sapiens, UniProt Q07343)
Construct: host or cells: Sf9 cells
Test: cAMP HTRF assay to determine the activity of hPDE4B1
Assay type: biochemical
Details: dose response measurements with eight concentrations; reported as ranges; read-out: IC50

// below: answered molecules
molecule: CN(C)C(=O)COc1ccc2c(c1)N(c1nc(-c3ccccc3Cl)nc3c1C[S+]([O-])C3)CC2 (stereo not shown)
study_target: human PDE4B1 (Homo sapiens, UniProt Q07343)
test_value: < 100 nM
//
molecule: COc1ccc(-c2nc3c(c(N4CCc5ccc(OCC(=O)N(C)C)cc54)n2)C[S+]([O-])C3)nc1 (stereo not shown)
study_target: human PDE4B1 (Homo sapiens, UniProt Q07343)
test_value: < 100 nM
//
molecule: CC(=O)Nc1ccc(-c2nc3c(c(N4CCc5ccc(OCC(=O)N(C)C)cc54)n2)C[S+]([O-])C3)cc1 (stereo not shown)
study_target: human PDE4B1 (Homo sapiens, UniProt Q07343)
test_value: < 100 nM

Next molecule, IC50 to be filled in.
Return value of IC50 for input O=C(O)Cc1ccc2c(c1)CCN2c1nc(-c2csc(Cl)c2)nc2c1CCC2 , no commentary.
< 100 nM
